Measured hGLP1R GTPgS Rel EC50 values are reported for all entries that follow.
- experimental system: human GLP-1 receptor (human, UniProt P43220 24-463)
- protocol text: cell-based or functional assay
The reply should contain only the number, in nM.

XXEGTFTSDYSIXLDEKAQXAFIEYLIAGGPSSGAPPPS (not fully specified; D-Tyr1, Aib2, αMeL13, K17 conjugated to (2-[2-(2-Amino-ethoxy)-ethoxy]-acetyl)2-(γ-Glu)-CO-(CH2)18-CO2H, Aib20, C-terminal amide (NH2)) [Example 341] :: 0.496

// sample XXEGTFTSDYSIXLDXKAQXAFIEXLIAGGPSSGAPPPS (D-Tyr1, Aib2, αMeL13, Orn16, K17 conjugated to (2-[2-(2-Amino-ethoxy)-ethoxy]-acetyl)2-(γ-Glu)-CO-(CH2)18-CO2H, Aib20, αMeY25, C-terminal amide (NH2)) [Example 366] , its hGLP1R GTPgS Rel EC50 was 0.409

// sample YXEGTFTSDYSIXLDKKAQXAFIEYLIEGGPSSG (Aib2, αMeL13, K17 conjugated to (2-[2-(2-Amino-ethoxy)-ethoxy]-acetyl)2-(γ-Glu)-CO-(CH2)16-CO2H, Aib20, C-terminal amide (NH2)) [Example 300] , its hGLP1R GTPgS Rel EC50 was 0.405
